experiment: Assay 4 solubility assay, ChemiLuminescent Nitrogen Detection (CLND); type: physicochemical; conditions: phosphate buffered saline, pH 7.4, aqueous buffer, kinetic from dmso stock, pH 7.4 PBS, from 10 mM DMSO stock, 1 h at room temperature
Observed Property: solubility at 1 h

>  <Chemical String>
O=C(Nc1ccc(F)c(-c2cn3nc(CCCO)cnc3n2)c1)N1CCCC1

>  <solubility at 1 h>
100 to 416 µM

$$$$

Input line: Give solubility at 1 h for the following compound: `C=C(C)c1cnc2nc(-c3cc(NC(=O)N4CCCC4)ccc3F)cn2n1`
Output line: 10 to 83 µM

Input line: Give solubility at 1 h for the following compound: `Cc1c(-c2cc(NC(=O)N3CCCC3)ccc2F)nc2ncc(N3CCOCC3)nn12`
Output line: 100 to 416 µM

Input line: Give solubility at 1 h for the following compound: `O=C(Nc1ccc(F)c(-c2cn3nc(N4CCOCC4)cnc3n2)c1)N1CCCC1`
Output line: 100 to 416 µM

Input line: Give solubility at 1 h for the following compound: `O=C(Nc1ccc(F)c(-c2cn3nc(N4CCCC4)cnc3n2)c1)N1CCCC1`
Output line: 10 to 83 µM
